Method notes: yeast display, Sf9 membrane polyspecificity reagent, FACS + sequencing; frameworks hold sequencing errors

{"Sequence text": "QVQLVESGGGLVQAGGSLRLSCAASGLTFGDYVMGWYRPAPGKERELVATITSDGGTTYADSVKGRFTISRDNAKNTVYLQMNSLKPEDTAVYYCNADAVVDNYVGFSAAGYDYWGQGTQVTVSS", "polyreactivity (PSR sort gate)": "low polyreactivity"}
{"Sequence text": "QVQLVESGGGLVQAGGSLRLSCAASGSIFQYYAMGWYRQAPGKEREFVAAISSSGGSTYYADSVKGRFTISRDNAKNTVSLQMNSLKPEDNAVYYCNTPYNGFRFDYWGQGTQVTVSS", "polyreactivity (PSR sort gate)": "low polyreactivity"}

* * *

Method notes: yeast display, Sf9 membrane polyspecificity reagent, FACS + sequencing; frameworks hold sequencing errors
Readout type: polyreactivity (PSR sort gate)

{"Sequence text": "QVQLVESGGGLVQAGGSLRLSCAASGSILADYAMGWDRQAPGKERELVAGISSGGSTNYADSVKGRFTISRDNAKNTVYLQMNSLKPEDTAVYYCNADQDFLFIGYLFDYWGQGTQVTVSS", "Value reported": "low polyreactivity"}
{"Sequence text": "QVQLQESGGGLVQAGGSLRLSCAASGSIARYYDMGWYLQAPGKEREFVAGISGGAISYYADSVKGRLTISRDNAKNTVYLQMNSLKPEDTAVYYCAADTCVYQYHSYWGQGTQVTVSS", "Value reported": "low polyreactivity"}
{"Sequence text": "QVQLVESGGGLVKAGGSLRFSCAASGSIFHPYELGWKTQAPRKESDLVAGISRSGTSTYYADSVKGRFTISRDNAKNTVYLQMNSLKPEDTAVYYCYKVLVGSNRGEYDYWGQGTQVTVSS", "Value reported": "low polyreactivity"}
{"Sequence text": "QVQLVESGGGLVQAGGSLRLSCAASGSIFSRYTRGWYRQAPGKEWELVASISRRGGRTYYADSVKGRFTISRDNAKNTVYLQMNSPKPEDTAVYYCNARGHGSAVGPFTRVNSWGQGTQVTVSS", "Value reported": "high polyreactivity"}
{"Sequence text": "QVQLVESVGGLVQAGGSLRLSCAASGSTFSSYAMGWYRTAPGKERELVAALTASGGSTYYADSVKGRFTISRDNAKNTVYLQMNSLKPEDTAVYYCAAADVIFWLYYYWVQGTQVTVSS", "Value reported": "low polyreactivity"}
{"Sequence text": "QVHLVESGGGLVQAGGSLRLSCAASGSTFYANLMGWYRQAPGKESELVAAIDGSGGRTYYADSVKGRFTISRDNAKNTVYLQMNSLKPEDTAVYYCAKKRIVPVIQFGRDYNYWGQGTQVTVSS", "Value reported": "high polyreactivity"}
{"Sequence text": "QVQLVESGGGLVQAGGSLRLTCAASGFIFGYNAMGWYRQAPGKERELVAAISSSGGSTYYADSVKGRFTISRDNAKNTVSLQMNSLKPEDTAVYYCAARPVALRKYDYWGQGTQVTVSS", "Value reported": "low polyreactivity"}
{"Sequence text": "QVQLVESGGGIVQAGGRLRLSCAASGSILAGYALGWYRQSPGKERELVAAISESGGNTYYADSVKGRFTISRDNAKNTVYLQMNSLKPEDTAVYYCAADLGYGPLRELEYWGQGTQVTVSS", "Value reported": "low polyreactivity"}
{"Sequence text": "QVQLVESGGGLVQAGGSLRLSCAASGSIFGKNAMGWYRQAPGKERELVAAITRRGGSTYYADSVKGRFTISRDNAKNTVYLQMNSLKPEDTAVYYCNALLTGGYQDSYPDDYWGQGTQVTVSS", "Value reported": "high polyreactivity"}
{"Sequence text": "HGQLVESGGGLVQAGGSLRLSCAASGITFTPKDMGWYREAPGKERELVAAISSSDGTTYYADSVTGRFTSSRDNAKNTVYLQMNSLKPEDTAVYYCAAEYYYSPAYDYYSGFKTLYYDWGQGTQVTGSS", "Value reported": "high polyreactivity"}
{"Sequence text": "QVQLVESGGGLVQAGGSLRLSCAASGFIFKRYGMGWYRQAPGKERELVAAISYSGGSTYYADSVKGRFTISRDNAKNTVYLQMNSLKPEDTAVYYCKATIHYNAGWTMGSWGQGTQVTVSS", "Value reported": "high polyreactivity"}
